Biological target: ZIKV NS5 WT (Zika virus, UniProt A0A024B7W1 2521-3423)
Experiment: fluorescence titration; buffer B1; B1: 50 mM Tris-HCl pH 8.0, 150 mM NaCl, 1 mM MgCl2, 2 mM beta-mercaptoethanol, 10% glycerol, 20 C; B2: same with 100 mM NaCl, 20 C
Conditions: protein: recombinant; tags: N-terminal His6-SUMO, cleaved; label: etheno-A fluorescence; single strand
experimentalEndpoint: pKd
Please keep in mind that pKd is minus log10 of the molar concentration; only the number is needed.

QUERY: Given the entry AAAAAAAAAAAAAAAAAAAA (ssRNA, all A etheno-modified (1,N6-ethenoadenosine)) [epsilonA(p-epsilonA)19 20-mer ssRNA] , report its measured pKd.
RESULT: 6.30
